Test system: HepG2
Test: GSK_TCMDC: Percent inhibition of human HepG2 cell line. Test compounds present at 10uM.
Type: functional
RECORDED METRIC: Inhibition (%)
Response body: numeric value in %, unit text excluded.

# COMPOUND, UNIT ANNOTATION, Inhibition
rows = [
    ("CCCC(C)Nc1nc(C)cc(N[C@@H](Cc2ccccc2)C(=O)NCc2cccc(F)c2)n1.O=C(O)C(F)(F)F (stereo not given in full)", "%", 9),
    ("Nc1nc(N)c2c(Cl)c(CNc3cccc(C(=O)O)c3)ccc2n1", "%", 69),
    ("COC(=O)Nc1nc2cc3c(cc2s1)OCCO3", "%", 0),
    ("CN1CCC(NCc2cccc(-c3cccc(-c4nc5cc(C(F)(F)F)ccc5[nH]4)c3)c2)CC1.O=C(O)C(F)(F)F", "%", 35),
    ("CC(C(=O)N1CCCC1)N1CCN(S(=O)(=O)c2ccc(C(C)(C)C)cc2)CC1 (stereo not given)", "%", 4),
]

For the compound `Clc1ccc(CNCCCCCCNCc2ccc(Cl)cc2)cc1.O=C(O)c1ccc2ccccc2c1O` , report Inhibition.
53

Identify measured Inhibition associated with `CCN1CCN(c2cc(C)c3cc(NC(=O)c4ccc(N(CC)CC)cc4)ccc3n2)CC1`
38

Report Inhibition, nothing else, for this compound: `O=C(O)C(F)(F)F.c1ccc2[nH]c(-c3ccc(-c4ccc(CN5CCN(CCN6CCOCC6)CC5)cc4)s3)nc2c1`
39

Provide measured Inhibition value, entry: CN(CCCCNC(=O)c1cc2ccccc2[nH]1)C1CC2(CCN(C(=O)OC(C)(C)C)CC2)c2ccccc21 (stereo not given)
12

Given the compound `O=C(Nc1cccc(CN2CCN(C(=O)c3ccccc3)CC2)c1)c1ccco1.O=C(O)C(F)(F)F` , write its reported Inhibition.
6

# return recorded Inhibition for entry CC(c1cccc(Nc2nccc(-c3c(-c4cccc(NC(=O)c5c(F)cccc5F)c4)nn4ncccc34)n2)c1)S(C)(=O)=O (stereo not given)
79

====

Test system: HepG2
Assay: GSK_TCMDC: Percent inhibition of human HepG2 cell line. Test compounds present at 10uM.
Type: functional
# condition met = Inhibition below 20% (exclusive); condition not met = Inhibition at/above 20%

Check out these entries, answers already filled in.
# QUERY SMILES, ANSWER LABEL
records = [
    ("Br.CC1(C)NC(N)=NC(=N)N1OCCCOc1cccc2ccccc12", "condition not met"),
    ("CCCc1cc(N2CCC(c3ccccc3)(N3CCCCC3)CC2)nc(Nc2ccc(OC)cc2)n1", "condition met"),
    ("CC(C)C1=CC(=NOS(=O)(=O)c2ccccc2)C=C(C(C)C)C1=O", "condition not met"),
    ("COc1cc2nc(N3CCC(CNC(=O)c4ccc(OC(F)(F)F)cc4)CC3)nc(N)c2cc1OC.O=C(O)C(F)(F)F", "condition met"),
]

Problem: For the compound `COc1cccc(CN2CCCN(Cc3cccc(NC(=O)c4ccc(Cl)c(Cl)c4)c3)CC2)c1.O=C(O)C(F)(F)F` , is Inhibition under 20%?
condition not met

====

Recorded Inhibition, one value per entry.
Test system: Plasmodium falciparum
Experiment: GSK_TCMDC: Inhibition of Plasmodium falciparum Dd2 in whole red blood cells, using parasite LDH activity as an index of growth. Test compounds present at 2uM
Format: functional
The reply should be a number in %, with the unit left off.

# QUERY SMILES, UNIT ANNOTATION, Inhibition
measured = [
    ("O=C(Cn1c(SCc2cccc(F)c2F)cc(=O)c2ccccc21)N(Cc1ccc(-c2ccc(C(F)(F)F)cc2)cc1)C1CCN(CCO)CC1", "%", 81),
    ("CC(C)C[C@@H](NC(=O)OC(C)(C)C)C(=O)Nc1ccc(Cc2ccc(NC(=O)[C@@H](CC(C)C)NC(=O)OC(C)(C)C)cc2)cc1", "%", 96),
    ("O=C(NCCN1CCCC1)c1cc(-c2ccc(Cl)c(O)c2)c(-c2ccncc2)o1", "%", 0),
    ("O=C(O)c1ccc(OCOCOc2ccc(C(=O)O)c(O)c2)cc1O", "%", 0),
    ("COc1ccc(CN2CCCN(Cc3cccc(C(=O)Nc4ccc(C(C)(C)C)cc4)c3)CC2)cc1.O=C(O)C(F)(F)F", "%", 3),
]

Supply measured Inhibition of `CC(C)CNCc1cccc(-c2cccc(CN(CCN(C)C)C(=O)Nc3ccccc3)c2)c1.O=C(O)C(F)(F)F` in your reply.
62

Quickly give me recorded Inhibition for `COCCNCc1ccc(-c2cccc(CNC3CCN(Cc4ccccc4)CC3)c2)cc1.O=C(O)C(F)(F)F`
100
